Tgt: HLA-DR DRB1*03:01 (Homo sapiens, UniProt P01903+P01911, A100K/A102G/A103R/A169T/F55Y/I96L/K41T/L162R/M171V/P40S/Q125H/Q178H/Q39Y/R42S/S66N/T106N/T262R/W38E/Y61H)
Sequence (P01903 26-254 limits assumed, other chains not shown): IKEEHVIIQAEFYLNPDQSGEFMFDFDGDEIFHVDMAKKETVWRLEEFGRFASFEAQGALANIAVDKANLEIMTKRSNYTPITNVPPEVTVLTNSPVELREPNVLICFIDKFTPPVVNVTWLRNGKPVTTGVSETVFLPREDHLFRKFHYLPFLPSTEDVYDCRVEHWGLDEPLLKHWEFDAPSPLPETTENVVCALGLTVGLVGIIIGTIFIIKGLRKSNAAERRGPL
Assay Summary: biochemical
Assay type: binding
Run Parameters: read-out: Binding capacity/IC50 (nM) DRB1*03:01
Ends that are not written are not given here.
Measurement Name: IC50 (nM)
Write the answer as a number in nM, unit excluded.

Looking up YAKMRSAHTNDVKQL-NH2 [RT(354-368)] , I found its IC50 recorded as 7100

Looking up DEELLKAVRIIKILYQSNP-NH2 [rev(9-27)] , I found its IC50 recorded as 632

Looking up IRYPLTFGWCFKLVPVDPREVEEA-NH2 [nef(133-156)] , I found its IC50 recorded as 704

Looking up SEELRSLYNTVATLYCVHQ-NH2 [p17(72-90)] , I found its IC50 recorded as 652
